experiment: FXN promoter activators, primary screen, cell-based, luciferase luminescence, HEK293 lucGAA850 (AID 540364); conditions: HEK293 lucGAA850 FXN promoter luciferase reporter, 24 h; at 6 µM; active compounds read high; percent of 10 µM SAHA response;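 note: 0% = DMSO wells and 100% = 10 µM SAHA wells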
Among all 360,000 compounds or so, about 2,000 (0.56%) were called active. This excerpt belongs to a sample that is enriched for actives.
Would you mind telling me the reported activation of each entry?
One number for each entry, in %.

{"columns": ["compound", "units", "experimental_value"],
 "data": [
  ["Cc1ccc(-c2c3c(=O)n(C)c(=O)n(C)c3cn2-n2cnnc2)cc1", "%", 10.3],
  ["COc1ccc(OC)c(S(=O)(=O)N(C)CC(=O)N2CCN(c3ccccc3)CC2)c1", "%", -1.26],
  ["O=C(COC(=O)COc1cccc(F)c1)NCC1CCCCC1", "%", 2.16],
  ["CC1CCC2(CC1)NC(=O)N(Cc1nnc(-c3cccs3)o1)C2=O (stereo not given)", "%", 1.39]
]}

Exercise: Query: activation; subject: `Cc1oc2c(F)c(F)c(F)c(F)c2c1S(=O)(=O)Nc1cccc(C(F)(F)F)c1`
Solution: -1.14

###

test: FXN promoter activators, primary screen, cell-based, luciferase luminescence, HEK293 lucGAA850 (AID 540364); conditions: HEK293 lucGAA850 FXN promoter luciferase reporter, 24 h; at 6 µM; active compounds read high; percent of 10 µM SAHA response;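 note: 0% = DMSO wells and 100% = 10 µM SAHA wells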
The campaign covered roughly 360,000 compounds. About 2,000 (0.56%) were called active. Only a selection was taken, and actives are over-represented in it overall.
endpoint_label: activation (%)
Numbers only, in %.

Some entries whose results are on file:
{"columns": ["compound", "activation [%]"],
 "data": [
  ["COc1ccc(C2Nc3ccccc3C(=O)N2c2ccc(Cl)cc2)cc1Cn1cc([N+](=O)[O-])cn1 (stereo not given)", 10.7],
  ["CC(Sc1nc2c([nH]c3ccccc32)c(=O)n1C)c1ccccc1 (stereo not given)", 13.8],
  ["COc1ccc(C2Nc3ccccc3C(=O)N2Cc2ccccc2)cc1Cn1nnc2ccccc21 (stereo not given)", -2.6]
]}

Dear reader, for each entry below, please note its activation.
1. CCOC(=O)C1=C(CC)Nc2ccccc2N=C1NC(=O)c1cccc(S(=O)(=O)N2CCCC2)c1
2. CCOCCCNC(=O)C(NC(=O)CNC(=O)c1ccccc1)c1ccc(C)cc1 (stereo not given)
3. C[C@H]([C@@H](O)[C@@H](O)[C@@H](C)C(C)(C)C)[C@H]1CC[C@H]2C3CC[C@H]4C[C@H](OS(=O)(=O)O)[C@@H](OS(=O)(=O)O)C[C@]4(C)[C@H]3CC[C@]12C (stereo not given in full)

Solution:
[-2.08, 1.83, -1.51]

Dear reader, for each entry below, please note its activation.
1. CCCCOC(=O)CNc1nnc(SCC(=O)OCC)[nH]c1=O
2. COCC(C)n1c(SCc2ccc(C(=O)OC)o2)nc2ccccc2c1=O (stereo not given)
3. COc1ccccc1N(CC(=O)Nc1ccc(C)cc1Cl)S(=O)(=O)c1cccs1

Solution:
4.67
2.64
0.98

Dear reader, for each entry below, please note its activation.
1. Cc1ccc(C(NC(=O)C2CCN(CCOc3ccc(Cl)cc3Cl)CC2)c2ccccn2)cc1 (stereo not given)
2. COc1cc(NC(=S)NCCSc2ccc(C)cc2)cc(OC)c1
3. COc1ccc(C2NC(=O)C(=O)/C2=C(\O)c2ccc(Cl)cc2)cc1OC (stereo not given)
4. CN1CCCc2cc(C#N)c(=O)[nH]c21

Solution:
1. 1.16
2. 0.45
3. -0.36
4. -0.22

Dear reader, for each entry below, please note its activation.
1. COc1ccc(-n2cc(-c3ccccc3)c3c(=S)nc[nH]c32)cc1
2. Cc1ccc2cc(/C=N/NC(=O)[C@@H]3CCCN3)c(Cl)nc2c1
3. CN(C(=O)c1cccc(NC(=O)Cc2ccc(NC(=O)C3CCCN(C(=O)C4CC4)C3)cc2)c1)C1CC1 (stereo not given)
4. Cc1noc(C)c1-c1ccc2ncnc(NC(C)c3ccco3)c2c1 (stereo not given)

Solution:
1. 8.54
2. 0.79
3. 0.38
4. 10.2

Dear reader, for each entry below, please note its activation.
1. O=C(Nc1nccs1)C1CCCN1S(=O)(=O)c1cccc2cccnc12 (stereo not given)
2. COC(=O)c1ccc(CSc2nc3ccccc3c(=O)n2-c2cccc(OC)c2)o1
3. COc1ccc(N2C(=O)CNC2=S)cc1

Solution:
1. -0.14
2. 10.1
3. -3.02

Where these numbers come from: PubChem BioAssay AID540364
